Each recorded value in this set is attributed to patent US20130273029A1.

- measurementTarget: T1, Mu HER3: CD33-[Murine HER3, residues 20-643]-TAG (murine, UniProt Q61526 20-643)
- T1 construct: also called mu HER3-Tag; not shown: C-terminal TAG (e.g., FLAG TAG)
- T1 sequence (Q61526 20-643): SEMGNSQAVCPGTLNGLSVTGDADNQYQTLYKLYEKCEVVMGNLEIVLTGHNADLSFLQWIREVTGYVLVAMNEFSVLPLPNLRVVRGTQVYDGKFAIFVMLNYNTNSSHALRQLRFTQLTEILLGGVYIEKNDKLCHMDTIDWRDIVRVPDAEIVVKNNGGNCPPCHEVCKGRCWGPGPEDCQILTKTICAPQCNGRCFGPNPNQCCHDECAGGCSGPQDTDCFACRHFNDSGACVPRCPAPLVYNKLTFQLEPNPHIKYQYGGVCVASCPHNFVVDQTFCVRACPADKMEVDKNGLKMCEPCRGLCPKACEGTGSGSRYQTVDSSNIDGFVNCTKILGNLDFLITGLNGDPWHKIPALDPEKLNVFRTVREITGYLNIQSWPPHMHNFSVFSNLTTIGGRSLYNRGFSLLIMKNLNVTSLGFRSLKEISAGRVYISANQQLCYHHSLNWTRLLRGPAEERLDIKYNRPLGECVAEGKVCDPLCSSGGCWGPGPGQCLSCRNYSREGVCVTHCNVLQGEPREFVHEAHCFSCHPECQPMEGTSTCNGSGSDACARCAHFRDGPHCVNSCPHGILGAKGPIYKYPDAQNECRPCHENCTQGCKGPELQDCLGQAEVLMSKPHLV
- assayInfo: SET, IgG vs soluble HER3-Tag
Exercise: state measured Kd for each of the binders provided.

List Kd for every entry below, keeping the order given.
1. MOR12510 (antibody, human IgG1, kappa, V domains shown, tested as IgG) VH: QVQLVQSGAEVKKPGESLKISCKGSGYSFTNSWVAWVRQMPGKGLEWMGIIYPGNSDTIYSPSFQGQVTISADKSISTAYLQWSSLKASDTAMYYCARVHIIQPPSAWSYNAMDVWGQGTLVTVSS VL: DIQMTQSPSSLSASVGDRVTITCRASQSISTYLNWYQQKPGKAPKLLIFGASNLQSGVPSRFSGSGSGTDFTLTISSLQPEDFATYYCQQDIDEPWTFGQGTKVEIKR
2. MOR12509 (antibody, human IgG1, kappa, V domains shown, tested as IgG) VH: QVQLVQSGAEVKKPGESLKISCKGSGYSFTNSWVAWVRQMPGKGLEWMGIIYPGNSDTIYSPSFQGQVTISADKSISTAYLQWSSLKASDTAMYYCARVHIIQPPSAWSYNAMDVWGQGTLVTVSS VL: DIQMTQSPSSLSASVGDRVTITCRASQSITHYLNWYQQKPGKAPKLLIFGASNLQSGVPSRFSGSGSGTDFTLTISSLQPEDFATYYCQQAFVDPSTTFGQGTKVEIKR

1: 0.2 nM; 2: 0.25 nM

// lookup Kd for MOR14536 (antibody, human IgG1, kappa, V domains shown, tested as IgG) VH: EVQLVQSGAEVKKPGESLKISCKGSGYSFSNYWIAWVRQMPGKGLEWMGIIYPGQSDTIYSPSFQGQVTISADKSISTAYLQWSSLKASDTAMYYCARVHIIQPPSAWSYNAMDVWGQGTLVTVSS VL: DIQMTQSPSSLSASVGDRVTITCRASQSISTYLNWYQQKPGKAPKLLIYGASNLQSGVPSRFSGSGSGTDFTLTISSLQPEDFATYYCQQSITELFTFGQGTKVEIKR
0.029 nM
